Readings of log10(TGI) for the listed compounds
Tested on: NCI-H226 lung
Test: NCI tumour cell line growth inhibition, 48 h
All values: base-10 log of TGI in µM.

## Input What log10(TGI) value was documented for this compound, "COc1cccc(NC(=O)CSc2nnc(-c3ccc(N=Cc4ccc(Cl)cc4)cc3)o2)c1" ?
## Output 1.64

## Input What log10(TGI) value was documented for this compound, "Cn1c2ccccc2c(=Nc2ccccc2)c2c3ccccc3[nH]c21" ?
## Output 0.30

## Input What log10(TGI) value was documented for this compound, "N#Cc1c(Nc2ccc(F)cc2)[n+]([O-])c2ccc(Cl)cc2[n+]1[O-]" ?
## Output 1.46

## Input What log10(TGI) value was documented for this compound, "CC(=O)O[C@H]1C#C/C=C\C#CC[C@@H]2C(=O)N(C(=O)OC(C)(C)C)[C@@H]12" ?
## Output 1.93

## Input What log10(TGI) value was documented for this compound, COc1cc([C@@H]2c3cc4c(cc3[C@@H](NC(=O)c3ccc(N)cc3)C3COC(=O)[C@@H]32)OCO4)cc(OC)c1O (stereo not given in full) ?
## Output 0.84

* * *

Test system: SN12C renal
Assay: NCI tumour cell line growth inhibition, 48 h
Readings of TGI for the listed molecules

Below are worked cases with known answers.
Molecule	TGI
CCC1C(C)c2c([nH]c3ccccc23)C2C(=O)N(c3ccccc3)C(=O)C21 (stereo not given)	26.3 µM
Nc1ccc(-c2nc3ccc4[nH]ncc4c3c3c2CCCC3)cc1F	13.2 µM
C/C(=C/CO[Si](C)(C)C(C)(C)C)C(=O)N(C)c1ccccc1I	31.1 µM
COc1ccccc1/C=C\c1cnnc2ccccc12	> 10 µM
O=C(c1cc(O)ccc1O)c1ccccc1C(Cl)(Cl)Cl	> 100 µM

## Input What TGI value was documented for this molecule, "CC(C)C[C@H](NC(=O)[C@H](CCc1ccccc1)NC(=O)CN1CCOCC1)C(=O)N[C@@H](Cc1ccccc1)C(=O)N[C@@H](CC(C)C)C(=O)[C@@]1(C)CO1" ?
## Output 0.0349 µM

## Input What TGI value was documented for this molecule, "Clc1nc(-[n+]2ccc(-c3ccncc3)cc2)nc(Nc2ccccc2)c1Cl" ?
## Output > 100 µM

## Input What TGI value was documented for this molecule, "Nc1nc(Cl)cc(N=Nc2ccccc2)n1" ?
## Output > 100 µM

## Input What TGI value was documented for this molecule, "O=C(c1ccc2ccccc2c1)C1S(=O)(=O)OCCOS1(=O)=O" ?
## Output > 100 µM

## Input What TGI value was documented for this molecule, "O=C1/C(=C/c2ccccc2)CCc2ccc(Cl)nc21" ?
## Output 18.6 µM

## Input What TGI value was documented for this molecule, "NCCCCCS(=O)(=O)O" ?
## Output > 100 µM

## Input What TGI value was documented for this molecule, "CS(=O)(=O)OCCN1CCC2(CC1)SSC1(CCN(CCOS(C)(=O)=O)CC1)S2" ?
## Output > 100 µM

## Input What TGI value was documented for this molecule, "CCN(CC)CCO/N=C1\CC[C@H]2[C@@H]3CC=C4C[C@@H](O)CC[C@]4(C)[C@H]3CC[C@]12C" ?
## Output > 100 µM

* * *

Test system: KM12 colon
Assay: NCI tumour cell line growth inhibition, 48 h
Outcome Measure: GI50

Below are worked cases with known answers.
Compound	Measured On	Outcome Measure	Recorded Result
Oc1ccc2oc3ncc(Cl)c(-c4ccccc4)c3c2c1	KM12 colon	GI50	> 100 µM
C=C(C=O)C1CC(=O)C(C(=O)OC)[C@@H]2O[C@@](C)(CC2=O)C[C@@H]2OC(=O)[C@]3(O[C@@H]23)[C@@H](C(=O)OC)C1 (some centres undefined)	KM12 colon	GI50	19.2 µM
O=C1c2ccccc2C(=O)c2c1ccc(C(Br)Br)c2[N+](=O)[O-]	KM12 colon	GI50	1.85 µM
N#Cc1c(NC(=O)c2ccccc2)sc2c1CCC(=O)C2	KM12 colon	GI50	0.711 µM
CC1(C)CCC[C@]23C(=O)O[C@](O)(C(=O)C4=C[C@@](C)(/C=C/CCCc5ccc6ccc7cccc8ccc5c6c78)CC[C@@]42O)[C@@H]13	KM12 colon	GI50	0.154 µM

Okay, now this compound:
## Input What GI50 value was documented for this compound, "COc1cc(-c2cc(-c3ccc(N(C)C)cc3)nc(N3CCOCC3)c2C#N)cc(OC)c1OC" ?
## Output 1.34 µM
